Molecular target: human ether-à-go-go-related gene (hERG) potassium channel (human)
Experiment: primary screen, population patch clamp on CHO cells stably expressing hERG; higher = less effect of the substance
Experimental: Briefly, Chinese hamster ovary (CHO) cells stably expressing the hERG channel were dislodged from tissue culture flasks and dispensed into PPC plates. […] During the recording, background leak currents were estimated by a 100 ms step to -80 mV from an initial holding potential of -70 mV and subtracted from the subsequent current measurement. The campaign was conducted in two phases using slight differences in recording protocol. […]
The whole screen tested about 310,000 compounds, of which about 14,000 (4.5%) showed an effect of 50% or more. The effect is printed as a negative number. The sample as a whole holds a higher share of strong results than the screen did.
Would you mind labelling by hERG current change (%, negative = inhibition) at 10uM? At or over -30% is fulfilled, under is not fulfilled.

Field: example entries. Status: answers known.
{"compound": "CCCn1nc(C(=O)NCC2COc3ccccc3O2)c2ccccc2c1=O (stereo not shown)", "class-assignment": "not fulfilled"}
{"compound": "COc1ccc(CNC(=O)c2coc(=O)c3ccccc23)cc1", "class-assignment": "fulfilled"}
{"compound": "CC(=O)Nc1ccc(NC(=S)NC(=O)/C=C/c2ccc(Cl)cc2)cc1", "class-assignment": "fulfilled"}

[ask] hey, is hERG current change (%, negative = inhibition) at 10uM for this one >= -30%? CN(C)S(=O)(=O)c1cc(S(=O)(=O)N(C)C)c(Cl)cc1N
[reply] fulfilled

[ask] hey, is hERG current change (%, negative = inhibition) at 10uM for this one >= -30%? CCc1ccc2c(COC(=O)C3CSC4(C)CCC(=O)N34)cc(=O)oc2c1 (stereo not shown)
[reply] not fulfilled

[ask] hey, is hERG current change (%, negative = inhibition) at 10uM for this one >= -30%? COc1cccc(C(=O)Nc2ccc3nc(N4CCOCC4)cc(C)c3c2)c1
[reply] not fulfilled

[ask] hey, is hERG current change (%, negative = inhibition) at 10uM for this one >= -30%? COc1ccc(C(CNC(=O)c2ccc(-c3cccc(C(F)(F)F)c3)o2)N2CCOCC2)cc1 (stereo not shown)
[reply] fulfilled

[ask] hey, is hERG current change (%, negative = inhibition) at 10uM for this one >= -30%? CCOC(=O)c1ccc(CNC(=O)CSc2nnc(-c3ccncc3)o2)cc1
[reply] fulfilled

[ask] hey, is hERG current change (%, negative = inhibition) at 10uM for this one >= -30%? CC1=CC(C)(C)N(C(=O)CSc2nnc(N)s2)c2ccccc21
[reply] fulfilled

[ask] hey, is hERG current change (%, negative = inhibition) at 10uM for this one >= -30%? O=C(CCC(=O)c1ccc(Cl)s1)Nc1ncccc1O
[reply] fulfilled

---

Recorded hERG current change (%, negative = inhibition) at 10uM, one value per entry.
biological target: human ether-à-go-go-related gene (hERG) potassium channel (human); experiment: primary screen, population patch clamp on CHO cells stably expressing hERG; higher = less effect of the substance;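 also: peak tail current of the secondary pulse compared with the same well before compound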
The whole screen tested about 310,000 compounds, of which about 14,000 (4.5%) showed an effect of 50% or more. The effect is printed as a negative number. The full list was thinned out, with strong results kept by preference.

{"compound": "Cc1ccc(S(=O)(=O)N2CCOCC2)cc1NC(=O)COC(=O)CCn1c(C)csc1=O", "value-measured": "2.85%"}

Measured hERG current change (%, negative = inhibition) at 10uM of CC1(OC(=O)CCc2ccccc2)C(=O)C=C2C=C(c3ccc(C#N)cc3)N(C3CCCC3)C=C2C1=O (stereo not shown) : -49.7%

Measured hERG current change (%, negative = inhibition) at 10uM of CC(=O)CCS(=O)(=O)c1ccc(C)c(C)c1 : 1.19%

Measured hERG current change (%, negative = inhibition) at 10uM of CN(C)C(CNC(=O)CCc1nc2cc(Cl)ccc2n(Cc2ccccc2)c1=O)c1ccccc1 (stereo not shown) : -81.1%

---

target: human ether-à-go-go-related gene (hERG) potassium channel (human, UniProt Q12809); assay: primary screen, population patch clamp on CHO cells stably expressing hERG; higher = less effect of the substance;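 also: peak tail current of the secondary pulse compared with the same well before compound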
Sequence (Q12809 whole entry, looked up): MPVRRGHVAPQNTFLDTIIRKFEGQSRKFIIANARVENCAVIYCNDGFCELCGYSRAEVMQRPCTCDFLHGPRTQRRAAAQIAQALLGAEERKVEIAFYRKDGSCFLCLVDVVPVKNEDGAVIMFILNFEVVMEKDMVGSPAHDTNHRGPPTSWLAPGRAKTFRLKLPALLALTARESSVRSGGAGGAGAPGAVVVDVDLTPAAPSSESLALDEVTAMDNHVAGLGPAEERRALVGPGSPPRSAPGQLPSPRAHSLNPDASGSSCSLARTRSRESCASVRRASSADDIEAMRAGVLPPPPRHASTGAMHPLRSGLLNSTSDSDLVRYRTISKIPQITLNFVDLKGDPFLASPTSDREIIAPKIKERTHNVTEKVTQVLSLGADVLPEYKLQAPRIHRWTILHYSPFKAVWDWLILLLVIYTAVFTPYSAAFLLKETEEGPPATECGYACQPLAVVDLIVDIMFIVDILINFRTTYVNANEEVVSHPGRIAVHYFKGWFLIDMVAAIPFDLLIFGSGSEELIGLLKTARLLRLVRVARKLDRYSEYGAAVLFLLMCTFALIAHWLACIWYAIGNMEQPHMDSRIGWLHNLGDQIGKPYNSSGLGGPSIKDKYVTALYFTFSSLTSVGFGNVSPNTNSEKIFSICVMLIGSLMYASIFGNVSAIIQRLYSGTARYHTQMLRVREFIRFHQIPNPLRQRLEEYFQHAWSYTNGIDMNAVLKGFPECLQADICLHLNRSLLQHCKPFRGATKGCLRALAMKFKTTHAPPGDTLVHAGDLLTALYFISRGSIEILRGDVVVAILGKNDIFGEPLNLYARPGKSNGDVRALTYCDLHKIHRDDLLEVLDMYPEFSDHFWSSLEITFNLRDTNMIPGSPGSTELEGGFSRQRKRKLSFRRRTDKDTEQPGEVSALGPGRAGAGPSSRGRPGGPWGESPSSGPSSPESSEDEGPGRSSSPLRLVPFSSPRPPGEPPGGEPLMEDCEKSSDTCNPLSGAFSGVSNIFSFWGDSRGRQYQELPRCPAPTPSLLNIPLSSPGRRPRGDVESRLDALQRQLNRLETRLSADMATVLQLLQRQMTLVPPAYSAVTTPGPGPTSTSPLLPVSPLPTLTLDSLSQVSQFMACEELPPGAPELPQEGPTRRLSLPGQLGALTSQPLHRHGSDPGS
Screen size: about 310,000 compounds; about 14,000 (4.5%) showed an effect of 50% or more. Effects have a minus sign here. Many of the other results were omitted from the sample, so strong results are more common in it than they were.
reported-metric: hERG current change (%, negative = inhibition) at 10uM

Check out these entries, answers already filled in.
{"compound": "O=C(O)CSc1ccc2nnc(-c3cccnc3)n2n1", "value-measured": "12.2%"}
{"compound": "CCOC(=O)CSc1ccc2nnc(-c3cccnc3)n2n1", "value-measured": "-31%"}
{"compound": "O=C(CCn1c(=O)[nH]c2ccccc2c1=O)N1CCN(c2cccc(C(F)(F)F)c2)CC1", "value-measured": "-43%"}
{"compound": "CNCCOc1ccccc1-c1ccccc1.O=C(O)C(=O)O", "value-measured": "-5.68%"}
{"compound": "CCOc1cc(C(=O)Nc2ccc3c4c(cccc24)C(=O)N3CC)cc(OCC)c1OCC", "value-measured": "-5.15%"}

Measured hERG current change (%, negative = inhibition) at 10uM of CC(OC(=O)CCc1nc2ccccc2c(=O)[nH]1)C(=O)c1ccc(C(C)(C)C)cc1 (stereo not drawn) : -12.3%

Measured hERG current change (%, negative = inhibition) at 10uM of O=C(COC(=O)c1ccccc1N1C(=O)C2C3CCC(C3)C2C1=O)c1ccccc1 (stereo not drawn) : 1.28%

Measured hERG current change (%, negative = inhibition) at 10uM of O=C(CSc1ccc2nnc(-c3cccnc3)n2n1)c1ccccc1 : -70%

Measured hERG current change (%, negative = inhibition) at 10uM of O=C(CCCCn1c(=O)[nH]c2ccccc2c1=O)N1CCN(c2cccc(C(F)(F)F)c2)CC1 : -56.1%

Measured hERG current change (%, negative = inhibition) at 10uM of CN(CCOc1ccccc1)C(=O)C1CCC(=O)N(CCc2ccc(Cl)cc2)C1 (stereo not drawn) : -84.9%

Measured hERG current change (%, negative = inhibition) at 10uM of Cc1nn(-c2ccccc2)c(Cl)c1C(=O)N1CCN(c2ncnc3c2cnn3-c2ccccc2)CC1 : -29.1%

---

biological target: human ether-à-go-go-related gene (hERG) potassium channel (human, UniProt Q12809); experiment: primary screen, population patch clamp on CHO cells stably expressing hERG; higher = less effect of the substance;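 also: peak tail current of the secondary pulse compared with the same well before compound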
In all, about 310,000 compounds went through this assay and about 14,000 (4.5%) showed an effect of 50% or more. The effect is printed as a negative number. The sample as a whole holds a higher share of strong results than the screen did.
reported-metric: hERG current change (%, negative = inhibition) at 10uM (%)
Give the number; % is assumed, so skip it.

Check out these entries, answers already filled in.
{"compound": "CCCCN(C(=O)CNC(=O)c1ccco1)C(C(=O)NC1CCCC1)c1ccc(OC)cc1 (stereo not shown)", "value-measured": -20.1}
{"compound": "COc1ccc(C)cc1-n1nnnc1SCc1csc(C)n1", "value-measured": -16.2}
{"compound": "CC12CC[C@H]3[C@@H](CCC4(O)C[C@H](O)CCC34/C=N/NC(=O)c3ccc(O)cc3)C1(O)CCC2C1=CC(=O)OC1 (stereo partly shown)", "value-measured": 15}

Measured hERG current change (%, negative = inhibition) at 10uM of Cn1c(N)c(C(=O)COC(=O)CSc2ccc3ccccc3c2)c(=O)n(C)c1=O : -1.77

Measured hERG current change (%, negative = inhibition) at 10uM of CN(CC(=O)OCC(N)=O)S(=O)(=O)c1ccc(Cl)cc1 : 33.6

Measured hERG current change (%, negative = inhibition) at 10uM of Cn1c(N)c(C(=O)COC(=O)CSc2ccc(Cl)cc2)c(=O)n(C)c1=O : -61.2

Measured hERG current change (%, negative = inhibition) at 10uM of N#Cc1c(N)nc2c(c1-c1ccncc1)CCCCC2 : -12.3

---

Recorded hERG current change (%, negative = inhibition) at 10uM, one value per entry.
molecular target: human ether-à-go-go-related gene (hERG) potassium channel (human, UniProt Q12809); assay: primary screen, population patch clamp on CHO cells stably expressing hERG; higher = less effect of the substance;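 also: peak tail current of the secondary pulse compared with the same well before compound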
The whole screen tested about 310,000 compounds, of which about 14,000 (4.5%) showed an effect of 50% or more. The effect is printed as a negative number. This excerpt belongs to a sample that is enriched for strong results.
Give the number; % is assumed, so skip it.

Check out these entries, answers already filled in.
{"compound": "CC12CCC(=O)N1C(C(=O)Nc1cccc(S(=O)(=O)N3CCCCC3)c1)CS2 (centres unmarked)", "test-target": "human ether-à-go-go-related gene (hERG) potassium channel (human, UniProt Q12809)", "value-measured": -43.9}
{"compound": "CCN(CC)C(=O)CSc1nc2c(sc(=S)n2-c2ccccc2OC)c(=O)n1-c1ccccc1", "test-target": "human ether-à-go-go-related gene (hERG) potassium channel (human, UniProt Q12809)", "value-measured": -4.22}
{"compound": "COc1ccc(CN2CCN(c3ccccn3)CC2)cc1OCc1ccccc1", "test-target": "human ether-à-go-go-related gene (hERG) potassium channel (human, UniProt Q12809)", "value-measured": -67.9}

Measured hERG current change (%, negative = inhibition) at 10uM of CN(C)C(C)(C)/C=C/C(O)(c1ccccc1)c1ccccc1 : -36.6

The reported measurements were obtained from paper PMC4336329.
